These measurements were taken from patent US7678918B2.

# Test system: TNF
# procedure.text: Cytokine Induction in Human Cells: tumor necrosis factor (TNF) secreted by PBMCs, ELISA; also: call rule not given here
# Format: cell-based
# conditions: Dose Concentration 1.0 μM, 18 to 24 hours
recorded.endpoint: TNF induction

Past entries and their recorded results:
CCCCc1nc2c(N)nc3cccnc3c2n1CCNC(=O)c1ccc(C#N)cc1 [Example 139]; −
CCCCc1nc2c(N)nc3cccnc3c2n1CCNC(=O)c1ccccc1OC [Example 144]; +
CC(C)Cn1cnc2c(N)nc3cnccc3c21 [Example 22]; −
CC(C)(O)Cn1c(Cc2ccccc2)nc2c(N)nc3cccnc3c21 [Example 65]; +
CCCCc1nc2c(N)nc3cccnc3c2n1CCCCNC(=O)OC(C)(C)C [Example 45]; +
CCCCc1nc2c(N)nc3cccnc3c2n1CCNC(=O)c1cnc(C)cn1 [Example 205]; +
CCCCc1nc2c(N)nc3cccnc3c2n1CCCCNC(=O)Cc1ccccc1 [Example 55]; +
CCCCc1nc2c(N)nc3cccnc3c2n1CCNC(=O)Cc1ccsc1 [Example 191]; −

Field: next compound
Entry CCCCc1nc2c(N)nc3cccnc3c2n1CCNC(=O)CCCCC(=O)OC [Example 145] has what TNF induction?
+
